- TEST PROTOCOL: qHTS RealTime-Glo MT Cell Viability Assay in HEK293 cells - 16 hour (AID 1224872); also: top concentration of the series differs between compounds; nearly all actives have a fitted effect of over 50% in size
- CONDITION DESCRIPTION: RealTime-Glo luminescence; series mostly up to 76.8 µM
Results filed as inconclusive are left out. Calls of active or inactive are those of the source. Calls follow the shape of the dose curve; as a rule, active = well fitted cell-killing curve with a large enough effect in the repeat runs; inconclusive = weak or mixed curves, or effect the other way; inactive = flat fitted curve, though single readings scatter.
READOUT: outcome

Worked examples follow.
[
  {
    "COMPOUND": "NNCCO",
    "outcome": "inactive"
  },
  {
    "COMPOUND": "CC(C)CCCCCCCOC(=O)c1ccccc1C(=O)OCCCCCCCC(C)C",
    "outcome": "inactive"
  },
  {
    "COMPOUND": "NP(N)(=O)NC(=O)c1ccc(F)cc1",
    "outcome": "inactive"
  },
  {
    "COMPOUND": "COC(=O)C1(O)c2ccccc2-c2ccccc21",
    "outcome": "inactive"
  },
  {
    "COMPOUND": "CC(=O)OC(c1ccccc1)C(Cl)(Cl)Cl (configuration not stated)",
    "outcome": "inactive"
  },
  {
    "COMPOUND": "SCc1ccccc1",
    "outcome": "inactive"
  }
]

Let us examine a further case.
**Q:** Bench note: what outcome did COC1CC(=C(c2cccs2)c2cccs2)C[N+](C)(C)C1 (configuration not stated) show?
**A:** inactive

----------
- EXPERIMENTAL SYSTEM: Retinoic acid receptor RXR-alpha (Homo sapiens) (UniProt P19793)
- Sequence (P19793 whole entry, looked up): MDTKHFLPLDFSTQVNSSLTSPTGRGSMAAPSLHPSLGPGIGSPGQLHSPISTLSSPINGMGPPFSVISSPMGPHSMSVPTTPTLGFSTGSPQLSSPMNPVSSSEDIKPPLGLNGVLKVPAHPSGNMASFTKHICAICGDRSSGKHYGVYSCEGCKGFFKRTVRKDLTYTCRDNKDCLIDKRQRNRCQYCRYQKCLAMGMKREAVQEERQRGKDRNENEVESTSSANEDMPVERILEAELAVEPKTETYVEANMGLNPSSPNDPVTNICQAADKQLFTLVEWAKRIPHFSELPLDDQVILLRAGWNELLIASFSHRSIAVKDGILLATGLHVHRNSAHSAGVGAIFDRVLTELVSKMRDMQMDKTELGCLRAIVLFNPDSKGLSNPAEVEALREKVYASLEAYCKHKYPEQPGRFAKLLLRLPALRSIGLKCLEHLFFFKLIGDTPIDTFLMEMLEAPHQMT
- TEST PROTOCOL: qHTS assay to identify small molecule agonists of the RXR signaling pathway (AID 1159527); also: nearly all actives have a fitted effect of over 35% in size
- CONDITION DESCRIPTION: HEK293T RXRa-UAS-bla, beta-lactamase ratio, 16 h; series mostly up to 76.8 µM
Records with an inconclusive call do not appear. The source made the active and inactive calls. Calls come from the whole dose curve.
READOUT: outcome

[
  {
    "COMPOUND": "C#CC(O)(C=CCl)CC (stereo not drawn)",
    "READOUT": "outcome",
    "ENDPOINT RESULT": "inactive"
  },
  {
    "COMPOUND": "CN1CC[C@]23c4c5ccc(O)c4O[C@H]2[C@@H](O)CC[C@H]3[C@H]1C5",
    "READOUT": "outcome",
    "ENDPOINT RESULT": "inactive"
  },
  {
    "COMPOUND": "CC(C)(C)N(NC(=O)c1ccc(Cl)cc1)C(=O)c1ccccc1",
    "READOUT": "outcome",
    "ENDPOINT RESULT": "inactive"
  },
  {
    "COMPOUND": "C[N+](C)(C)CC1CO1 (stereo not drawn)",
    "READOUT": "outcome",
    "ENDPOINT RESULT": "inactive"
  }
]

For every record below, what is its outcome?
1. Oc1cccc(Cl)c1
2. O=S(=O)(c1ccccc1)c1ccccc1
3. CON(C)C(=O)Nc1ccc(Cl)cc1
4. CN(C1CCCCC1)C1CCCCC1
5. CCCC[P+](CC)(CCCC)CCCC (tested in a mixture with another compound)
6. OCCSSCCO

**A:**
1: inactive; 2: inactive; 3: inactive; 4: inactive; 5: inactive; 6: inactive

For every record below, what is its outcome?
1. CCOP(=O)(O)C(N)=O
2. C=CC(C)(CCC=C(C)C)OC(=O)c1ccccc1N (stereo not drawn)
3. O=C(O)C(F)(F)C(F)(F)C(F)(F)C(F)(F)C(F)(F)F

**A:**
inactive
inactive
inactive
